Catalogue of molecules with associated TGI
Test system: SK-MEL-2 melanoma
protocolText: NCI tumour cell line growth inhibition, 48 h

molecule	TGI
COc1ccc(/C=C\c2cc(OC)c(OC)c(OC)c2)c(NS(=O)(=O)c2ccc(Cl)cc2)c1O	21.3 µM
COc1cccc(NC(=O)CC(=O)N2N=C(C)C(N=Nc3ccc(C(=O)O)cc3)C2=O)c1 (stereo not given)	> 100 µM
O=c1oc2cccnc2n1CCCCN1CCN(c2ccccc2)CC1	> 100 µM
COC(=O)[C@@]1(C)CCC[C@]2(C(=O)O)C3Cc4occc4[C@H](C)[C@@H]3CCC21 (stereo not given in full)	> 100 µM
Cc1ccc2sc3ccc(N)cc3c(=O)c2c1	> 100 µM
CCN(CCCl)c1cccc(NC(=O)c2ccc(C(=O)Nc3cccc(CN(C)C)c3)cc2)c1	0.0856 µM
CC1=NN2C(=N)/C(=C/c3ccccc3)C(=O)N=C2S1	> 100 µM
COc1cc2c3c(c1OC)C1(C=CC(=O)C=C1)CC3NCC2 (stereo not given)	> 100 µM
COc1ccc2ccccc2c1CN1CCOCCOCCN(Cc2c(OC)ccc3ccccc23)CCOCCOCC1	97.4 µM
Nc1ccc2c(c1)NC(=O)[C@@H]1CCCN1C2=O	> 100 µM

###

Catalogue of compounds with associated TGI
Tested on: MALME-3M melanoma
protocolText: NCI tumour cell line growth inhibition, 48 h

compound	studyTarget	relationSymbol	TGI, µM
CC(/C=C/NNC1=NC(c2ccccc2)C(c2ccccc2)=NN1)Sc1ccccc1N (stereo not given)	MALME-3M melanoma	=	20.9
COC(=O)C(=O)C(C(=O)C(N)=O)c1nc2ccc(C(=O)c3ccccc3)cc2[nH]c1=O (stereo not given)	MALME-3M melanoma	>	100
CCN(CCCl)c1cccc(NC(=O)c2ccc(C(=O)Nc3cccc(CN(C)C)c3)cc2)c1	MALME-3M melanoma	=	0.166
CN(C)CCNC(=O)c1cc(NC(=O)c2cc(NC(=O)CC/C=C3/[C@@H]4CC[C@H]3N=N4)cn2C)cn1C	MALME-3M melanoma	>	100
COc1cc2c(cc1O)CCN(C)[C@H]2Cc1ccc(Oc2c(O)c(OC)cc3c2C[C@H]2c4c(c(OC)c(OC)c(OC)c4-3)CCN2C)cc1	MALME-3M melanoma	=	13.6

###

System: HCC-2998 colon
protocolText: NCI tumour cell line growth inhibition, 48 h
Catalogue of compounds with associated TGI
quantityMeasured: TGI (nM)

compound	studyTarget	quantityMeasured	relationSymbol	readoutNumber
CCC1(OC(=O)CN)C(=O)OCc2c1cc1n(c2=O)Cc2cc3cc4c(cc3nc2-1)OCO4 (centres undefined)	HCC-2998 colon	TGI	=	1080
COC(=O)[C@]1(C)C(OC)=CC(=O)C2C1[C@H]1CCC[C@@H]21 (some centres undefined)	HCC-2998 colon	TGI	>	100000
C/C(=N\NC(=S)N1CCN(c2ccccn2)CC1)c1nccs1	HCC-2998 colon	TGI	=	14900
C[PH+](c1nc2ccccc2nc1[PH+](C)C(C)(C)C)C(C)(C)C.C[PH+](c1nc2ccccc2nc1[PH+](C)C(C)(C)C)C(C)(C)C.[Au+].[Cl-] (centres undefined)	HCC-2998 colon	TGI	=	302

###

Tested on: MDA-MB-435
Outcome codes: t for active, f for inactive

compound	studyTarget	assignedLabel
N=c1ccc2nc3c(cc(N)c4ccccc43)oc-2c1	MDA-MB-435	t
CCC[CH2][Sn]1([CH2]CCC)[O]C(=O)c2ccc(N)cc2[O]1	MDA-MB-435	f
CCCCNC(=O)Oc1ccc(/C(=C(/CC)Cc2ccccc2)c2ccc(OCCN3CCCCCC3)cc2)cc1	MDA-MB-435	f
C/C(=C(/c1ccc(O)cc1)c1ccc(Cl)cc1)c1ccccc1	MDA-MB-435	f
COc1ccc([C@@H](O)c2cc(-c3ncnc4cc(N5CCOCC5)ccc34)c(F)cc2Cl)nn1	MDA-MB-435	f
CC(=O)c1cc(-c2ccccc2N)n(-c2ccc3c(c2)OCO3)c1C	MDA-MB-435	t
COC(=O)c1ccc(CN2C(=O)C(Cl)=C(Nc3ccc(OC)c(Cl)c3)C2=O)cc1	MDA-MB-435	f
COc1cc(/C=C2\CN(C(=O)CCN3CCC(=NO)CC3)C/C(=C\c3cc(OC)c(OC)c(OC)c3)C2=O)cc(OC)c1OC	MDA-MB-435	t
COC(=O)c1ccc2c(c1)C(=O)c1c-2n(CCCN)c(=O)c2cc(OC)c(OC)cc12	MDA-MB-435	f
C[PH+](c1nc2ccccc2nc1[PH+](C)C(C)(C)C)C(C)(C)C.C[PH+](c1nc2ccccc2nc1[PH+](C)C(C)(C)C)C(C)(C)C.[Au+].[Cl-] (configuration not stated)	MDA-MB-435	t
CCN(CC)CCOc1c(OC)c(Br)cc2c(C)c(C(=O)OC)oc12	MDA-MB-435	f
O=C(N/N=C/c1ccc(Cl)cc1)c1[nH]c2ccc(Cl)cc2c1-c1ccccc1	MDA-MB-435	t

###

Tested on: NCI-H23 lung
protocolText: NCI tumour cell line growth inhibition, 48 h
Catalogue of compounds with associated TGI
quantityMeasured: TGI

compound	studyTarget	quantityMeasured	result
CCn1c(=O)c2c3ccc(OC(C)=O)cc3[nH]c2c2ccc(OC(C)=O)cc21	NCI-H23 lung	TGI	> 100 µM
C[C@]12CC[C@H]3[C@@H](CC[C@]4(O)C[C@@H](O)CC[C@]34CO)[C@@]1(O)CC[C@@H]2C1=CC(=O)OC1	NCI-H23 lung	TGI	4.98 µM
Cc1cn(CCOCCOC(=O)NC(CCCNC(N)=O)C(=O)O)c(=O)[nH]c1=O (centres undefined)	NCI-H23 lung	TGI	> 100 µM
CCN(CC)C1Oc2cc3c(cc2C(c2cc(OC)c(OC)c(OC)c2)C1C)OCO3 (centres undefined)	NCI-H23 lung	TGI	> 49 µM
CC(=O)c1cccc(-c2cccc(-c3ccn(CCN4CCOCC4)n3)c2)c1	NCI-H23 lung	TGI	> 20 µM
C=C(CCOC)CCC1CCCCC(=C)[C@H]1O (some centres undefined)	NCI-H23 lung	TGI	> 100 µM
COC(=O)[C@@]1(C)CCC[C@]2(C(=O)O)C3Cc4occc4[C@H](C)[C@@H]3CCC21 (some centres undefined)	NCI-H23 lung	TGI	> 100 µM
Clc1ccc2ns[s+]c2c1	NCI-H23 lung	TGI	> 46.4 µM
CC(C)(CN1CCCCC1)C(/C=C/c1ccccc1)=N\NC(=O)N/N=C(/C=C/c1ccccc1)C(C)(C)CN1CCCCC1	NCI-H23 lung	TGI	4.68 µM
Nc1ccc2c(c1)NC(=O)[C@@H]1CCCN1C2=O	NCI-H23 lung	TGI	> 100 µM
CCOC(=O)c1c2c(n(Cc3ccccc3)c1C)-c1nc(Cc3ccccc3)[nH]c1C(=O)C2=O	NCI-H23 lung	TGI	3.59 µM
CCN(CC)CCOc1c(OC)c(Br)cc2c(C)c(C(=O)OC)oc12	NCI-H23 lung	TGI	2.68 µM
NNS(=O)(=O)c1cc(C(=O)O)cc(C(=O)O)c1	NCI-H23 lung	TGI	> 100 µM
Clc1ccc2c(c1)C(N1CCNCC1)=Nc1ccccc1O2	NCI-H23 lung	TGI	14.3 µM
COc1cc(CNC(=S)CCCCCCCCCCC(C)C)ccc1O	NCI-H23 lung	TGI	> 100 µM
COC(=O)[C@H]1N[C@@H](C(=O)OC)C23CCC[C@H]2CC[C@]1(C(OC)OC)C3	NCI-H23 lung	TGI	> 100 µM
CC(=O)c1cc(-c2ccccc2N)n(-c2ccc3c(c2)OCO3)c1C	NCI-H23 lung	TGI	97.6 µM
COC(=O)C(CC(=O)c1c[nH]c2ccccc12)c1c[nH]c2ccccc12 (centres undefined)	NCI-H23 lung	TGI	34 µM
C[C@]12CCC(=O)C=C1CC[C@@H]1[C@@H]2[C@@H](O)C[C@@]2(C)[C@H]1CC[C@]2(O)C(=O)COC(=O)CCC1CCCC1	NCI-H23 lung	TGI	> 100 µM
COc1cc(/C=C2\CN(C(=O)CCN3CCC(=NO)CC3)C/C(=C\c3cc(OC)c(OC)c(OC)c3)C2=O)cc(OC)c1OC	NCI-H23 lung	TGI	1.39 µM
NC(=S)N/N=C1\CCCC1C(O)(C(F)(F)Cl)C(F)(F)Cl (centres undefined)	NCI-H23 lung	TGI	> 10 µM
C=CCc1ccccc1C1CC2(C(=O)OC)OC1C(C(=O)OC)=C2C(=O)OC (centres undefined)	NCI-H23 lung	TGI	> 10 µM
CCCCN(CC)c1ncnc2ccc(Br)cc12	NCI-H23 lung	TGI	44.4 µM
O=C(O)c1cccc(/C=C/c2ccccc2)c1	NCI-H23 lung	TGI	> 100 µM
O=[N+]([O-])c1cc(F)ccc1Sc1ccccc1	NCI-H23 lung	TGI	> 10 µM
N#C/C(C(=O)Nc1ccccc1)=C(/N)N1CCCCC1	NCI-H23 lung	TGI	> 100 µM
O=C1c2ccccc2C(=O)c2nn(N=P(CP(=Nn3nc4c(n3)C(=O)c3ccccc3C4=O)(c3ccccc3)c3ccccc3)(c3ccccc3)c3ccccc3)nc21	NCI-H23 lung	TGI	> 100 µM
COc1cc(C2c3cc4c(cc3[C@@H](N(C)C)[C@H]3COC(=O)C23)OCO4)cc(OC)c1O (some centres undefined)	NCI-H23 lung	TGI	> 100 µM
CCN(CCCl)c1cccc(NC(=O)c2ccc(C(=O)Nc3cccc(CN(C)C)c3)cc2)c1	NCI-H23 lung	TGI	1.15 µM
